target: hOCT2 (Homo sapiens, UniProt O15244); assay: Inhibition of hOCT2-mediated 14C-metformin uptake in transfected HEK293 cells; type: cell-based; design: expressed in transfected cells; host or cells: HEK293 (stably transfected)
Sequence (O15244 whole entry): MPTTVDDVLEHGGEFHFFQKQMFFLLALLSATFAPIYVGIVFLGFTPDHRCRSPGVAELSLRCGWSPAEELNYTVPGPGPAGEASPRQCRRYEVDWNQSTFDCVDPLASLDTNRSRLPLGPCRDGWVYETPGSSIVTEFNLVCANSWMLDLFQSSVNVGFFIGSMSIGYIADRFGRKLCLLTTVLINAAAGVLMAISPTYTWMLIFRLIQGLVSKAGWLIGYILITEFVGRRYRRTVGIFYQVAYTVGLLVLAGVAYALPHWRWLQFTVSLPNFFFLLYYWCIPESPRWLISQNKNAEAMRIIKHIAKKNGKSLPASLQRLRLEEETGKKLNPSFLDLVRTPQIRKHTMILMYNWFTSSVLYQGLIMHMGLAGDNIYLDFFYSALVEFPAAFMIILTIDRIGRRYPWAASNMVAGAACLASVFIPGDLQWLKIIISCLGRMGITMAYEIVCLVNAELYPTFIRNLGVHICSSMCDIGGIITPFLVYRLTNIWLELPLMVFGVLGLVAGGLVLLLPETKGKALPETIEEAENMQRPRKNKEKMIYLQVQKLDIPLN
experimental-readout: IC50 (µM)

molecule=COc1cc2c(cc1OC)CN(CCc1ccc(NC(=O)c3cccc4c(=O)c5cccc(OC)c5[nH]c34)cc1)CC2 experimental_readout=IC50 numeric_result=20
molecule="C=CCOC(Cn1ccnc1)c1ccc(Cl)cc1Cl (centres unmarked)" experimental_readout=IC50 numeric_result=4.7
